# target_or_test_system: PXR nuclear receptor (Homo sapiens (Human))
# Sequence (O75469 whole entry): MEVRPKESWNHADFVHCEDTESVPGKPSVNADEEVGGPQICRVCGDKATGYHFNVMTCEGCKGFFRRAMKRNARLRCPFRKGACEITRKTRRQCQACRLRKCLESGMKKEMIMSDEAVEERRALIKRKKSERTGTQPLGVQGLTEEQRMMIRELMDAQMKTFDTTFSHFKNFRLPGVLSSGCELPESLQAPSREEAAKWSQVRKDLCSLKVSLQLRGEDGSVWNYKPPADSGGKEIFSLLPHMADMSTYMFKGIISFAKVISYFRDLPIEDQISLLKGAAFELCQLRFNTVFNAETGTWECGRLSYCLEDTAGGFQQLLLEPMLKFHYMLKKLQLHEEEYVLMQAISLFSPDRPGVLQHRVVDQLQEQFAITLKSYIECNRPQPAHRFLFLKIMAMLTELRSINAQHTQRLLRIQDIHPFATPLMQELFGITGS
# test: PXR activation luciferase reporter assay
# Format: cell-based
# condition: versus vehicle-treated cells; 0.03-10 μM test compound; read-out: PXR activation (Max fold induction)
assay_metric: fold induction at 24 h

COc1cnc(Cl)cc1-c1cnccc1C(=O)Nc1nnc(C#CC2CC2)s1 ... 1.8
COc1ccc(F)cc1-c1cnccc1C(=O)Nc1nnc(C#Cc2ccc(C#N)cc2)s1 [Compound 473] ... 1.3

----------
# target_or_test_system: PolQ ATPase enzyme (1-894) (Homo sapiens (Human))
# test: Polθ ATPase enzymatic assay (0.5 nM enzyme concentration), ADP-Glo
# Type: biochemical
# condition: 0.5 nM PolQ ATPase enzyme (1-894); average IC50
assay_metric: IC50 (nM)

Past entries and their recorded results:
COCCC#Cc1cc(-c2cc(C(F)F)ncc2OC)c(C(=O)Nc2nnc([C@H]3C[C@@H]3C)s2)cn1 (racemic) [Compound 625] ... 0.42
COc1cnc(C(F)F)cc1-c1cc(C#CCN2CCOCC2)ncc1C(=O)Nc1nnc([C@H]2C[C@@H]2c2cncs2)s1 (racemic) [Compound 640] ... 0.54
C#C[C@@H]1CC1c1nnc(NC(=O)c2ccc(N3CCOCC3=O)cc2-c2cc(C(F)F)ncc2OC)s1 (stereo partly shown) [Compound 177] ... 0.39

a: COc1cnc(C(F)F)cc1-c1cc(C#CCN2CCCCC2)ncc1C(=O)Nc1nnc(C#CC2CC2)s1 [Compound 589]
b: COC(=O)C1CCN(c2cc(-c3cc(C(F)F)ncc3OC)c(C(=O)Nc3nnc(C#CC4CC4)s3)cn2)C(=O)C1 (stereo not shown) [Compound 497]
c: COc1cnc(C(F)F)cc1-c1cc(N2CCCCS2(=O)=O)ncc1C(=O)Nc1nnc(C#CC2CC2)s1 [Compound 521]
Input: In this exercise, place the 3 compounds in ascending sequence of their recorded IC50. Field: ranking. Enter the labels in the order requested.
Output: b, a, c
(b: 0.45 nM, a: 0.7 nM, c: 15 nM)

----------
# target_or_test_system: PolQ ATPase enzyme (1-894) (Homo sapiens (Human), UniProt O75417)
# Sequence (O75417 1-894): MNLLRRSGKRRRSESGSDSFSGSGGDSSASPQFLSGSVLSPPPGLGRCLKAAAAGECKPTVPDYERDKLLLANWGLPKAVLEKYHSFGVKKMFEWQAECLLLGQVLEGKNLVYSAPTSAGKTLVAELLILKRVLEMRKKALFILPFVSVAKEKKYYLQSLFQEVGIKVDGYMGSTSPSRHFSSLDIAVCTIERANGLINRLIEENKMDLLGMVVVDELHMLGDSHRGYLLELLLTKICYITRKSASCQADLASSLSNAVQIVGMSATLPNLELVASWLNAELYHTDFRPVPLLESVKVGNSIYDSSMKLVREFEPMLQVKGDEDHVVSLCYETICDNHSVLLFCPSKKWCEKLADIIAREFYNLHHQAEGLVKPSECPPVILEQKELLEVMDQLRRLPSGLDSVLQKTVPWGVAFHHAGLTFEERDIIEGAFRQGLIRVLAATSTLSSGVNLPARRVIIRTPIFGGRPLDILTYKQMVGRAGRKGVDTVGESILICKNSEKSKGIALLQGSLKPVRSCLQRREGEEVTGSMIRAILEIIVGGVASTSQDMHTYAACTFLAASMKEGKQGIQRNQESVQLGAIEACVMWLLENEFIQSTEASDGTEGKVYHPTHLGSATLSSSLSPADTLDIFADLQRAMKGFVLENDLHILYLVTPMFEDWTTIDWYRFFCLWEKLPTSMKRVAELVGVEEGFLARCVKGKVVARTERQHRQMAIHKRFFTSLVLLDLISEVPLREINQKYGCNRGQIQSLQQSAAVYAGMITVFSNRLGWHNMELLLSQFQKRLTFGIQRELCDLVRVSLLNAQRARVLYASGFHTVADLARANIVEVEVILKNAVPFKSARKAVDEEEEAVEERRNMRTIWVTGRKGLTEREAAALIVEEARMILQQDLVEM
# test: Polθ ATPase enzymatic assay (0.5 nM enzyme concentration), ADP-Glo
# Format: biochemical
# condition: 0.5 nM PolQ ATPase enzyme (1-894); average IC50
assay_metric: IC50 (nM)

COc1cnc(C(F)F)cc1-c1cc(-n2ccc(C)cc2=O)ncc1C(=O)Nc1nnc([C@H]2C[C@@H]2C(F)(F)F)s1 [Compound 534] ... 0.95
COc1cnc(C(F)F)cc1-c1cc(N2CCN(CC#N)C3(CC3)C2=O)ncc1C(=O)Nc1nnc(C#CC2CC2)s1 [Compound 508] ... 1.2
COc1cnc(C(F)F)cc1-c1cc(C#CCN2CCOCC2)ncc1C(=O)Nc1nnc([C@H]2C[C@@H]2c2cscn2)s1 (racemic) [Compound 634] ... 0.86

P: COc1cnc(C(F)F)cc1-c1cc(C#CCC(C)(C)O)ncc1C(=O)Nc1nnc([C@H]2C[C@@H]2c2ccn(C)n2)s1 [Compound 631]
Q: COc1cnc(C(F)F)cc1-c1cc(C#CCC(C)(C)O)ncc1C(=O)Nc1nnc([C@H]2C[C@@H]2c2ccn(C)n2)s1 (racemic) [Compound 622]
R: COc1cnc(C(F)F)cc1-c1cc(C#CCN2CCOCC2=O)ncc1C(=O)Nc1nnc(C#CC2CC2)s1 [Compound 542]
Input: Please list these compounds in decreasing order of IC50. Field: ranking. Enter the labels in the order requested.
Output: Q, P, R
(Q: 1.4 nM, P: 0.93 nM, R: 0.29 nM)
